- Test system: NCI/ADR-RES ovarian
- assay summary: NCI tumour cell line growth inhibition, 48 h
Outcome: Met for TGI of at least 30 µM; Not met for anything lower.

Request: Entry "O=C(NC(=S)Nc1ccc([N+](=O)[O-])cc1)c1ccc2c(c1)Sc1ccccc1O2" : is its TGI no less than 30 µM?
Result: Met

Request: Entry "O=C1Nc2ccccc2/C1=C\c1c(-c2ccccc2)nc2sccn12" : is its TGI no less than 30 µM?
Result: Not met

Request: Entry "Cc1ccccc1NC(=O)Cc1csc(N/N=C2\NC(=O)/C(=C/c3cccc([N+](=O)[O-])c3)S2)n1" : is its TGI no less than 30 µM?
Result: Met

Request: Entry "CN(C)CCNC(=O)c1cccc2ccc(-c3ccc(Br)cc3)nc12" : is its TGI no less than 30 µM?
Result: Not met

Request: Entry COc1ccc2c(c1)N(Cc1ccc(Cl)cc1)CCC2N1CCCC1=O (stereo not given) : is its TGI no less than 30 µM?
Result: Met

Request: Entry "N#CC(C#N)=NNc1ccc2cn[nH]c2c1" : is its TGI no less than 30 µM?
Result: Met

Request: Entry "CC1(C)CC(=O)C=C(/C=C/Sc2c(Cl)c(Cl)nc(Cl)c2Cl)C1" : is its TGI no less than 30 µM?
Result: Not met

Request: Entry "CCn1c2nc(=O)n(CCCCCCCCSC(c3ccccc3)(c3ccccc3)c3ccccc3)c(=O)c-2nc2ccccc21" : is its TGI no less than 30 µM?
Result: Met

Request: Entry "O=Cc1cccc2ccc3ccccc3c12" : is its TGI no less than 30 µM?
Result: Met

Request: Entry "O=c1cc(-c2ccccc2)[nH]c2ncccc12" : is its TGI no less than 30 µM?
Result: Not met

----------
- System: COLO 205 colon
- assay summary: NCI tumour cell line growth inhibition, 48 h
measured metric: TGI

Request: For CC1CCC2C(C)C(=O)OC3OC4(C)CCC1C32OO4 (stereo unspecified) , what is its reported TGI?
Result: > 100 µM

Request: For COC(=O)CN(CC(=O)NCCCBr)C1CCCCC1N(CC(=O)OC)CC(=O)OC (stereo unspecified) , what is its reported TGI?
Result: > 100 µM

Request: For "CNC(=O)c1nn(C)c2c1C(C)(C)Cc1cnc(Nc3cccc(N4CCN(C)CC4)c3)nc1-2" , what is its reported TGI?
Result: 1.59 µM

Request: For "CN(c1ccccc1)S(=O)(=O)c1ccc([N+](=O)[O-])cc1" , what is its reported TGI?
Result: > 100 µM

Request: For CC(=O)c1ccccc1NC(=O)C(=O)C(C(=O)c1ccc2ccccc2c1)C1OC(=O)c2ccccc21 (stereo unspecified) , what is its reported TGI?
Result: 30.2 µM

Request: For [O-]/N=[N+](/[O-])C1CCCCC1=[N+]1CCOCC1 (stereo unspecified) , what is its reported TGI?
Result: > 100 µM

Request: For "COc1ccc(-c2oc3ccccc3c(=O)c2O)cc1OC" , what is its reported TGI?
Result: > 100 µM

Request: For "Cc1[nH]c(=O)nc(N/N=C/c2ccc(O)cc2)c1C(=O)Nc1ccc(O)cc1" , what is its reported TGI?
Result: > 100 µM

Request: For "N#CC(C#N)=CNCCN1CCN(C=C(C#N)C#N)CC1" , what is its reported TGI?
Result: > 100 µM

Request: For "COC(=O)c1c(O)ccc2c1c1cc3ccccc3cc1n2Cc1cc(OC)cc(OC)c1" , what is its reported TGI?
Result: > 36.1 µM

Request: For Cc1ncc([N+](=O)[O-])n1CC[N+](C)([O-])CCCCn1ccnc1[N+](=O)[O-] (stereo unspecified) , what is its reported TGI?
Result: > 100 µM

Request: For "Nn1c(Nc2ccc(S(N)(=O)=O)cc2)nnc(/C=C/c2c(O)ccc3ccccc23)c1=O" , what is its reported TGI?
Result: 88.1 µM

Request: For "O=C(Cn1c(C(=O)c2ccc(Cl)cc2)nc(-c2ccc(Cl)cc2)c1-c1ccc(Cl)cc1)c1ccccc1" , what is its reported TGI?
Result: > 100 µM

Request: For "ClCCCSSCCCCl" , what is its reported TGI?
Result: > 72.5 µM

Request: For COC(=O)CNC(=O)C(Cc1ccccc1)NC(=O)c1ccc(-c2ccc(Cl)cc2Cl)o1 (stereo unspecified) , what is its reported TGI?
Result: 30.2 µM

Request: For CCc1ccccc1NC(=O)C(=O)C(C#N)c1ccccc1Cl (stereo unspecified) , what is its reported TGI?
Result: > 100 µM

Request: For CCOP(=O)(CCCC(O)CNc1nc(N)nc(Cl)c1N=Nc1ccc(Cl)cc1)OCC (stereo unspecified) , what is its reported TGI?
Result: 20.4 µM

Request: For "CN1CCN(C(=O)CCC(=O)Nc2cc3c(c4ccccc24)-c2ccc4ccccc4c2C3)CC1" , what is its reported TGI?
Result: 3 µM

Request: For "CN(C)C(=O)Oc1c(Br)cc(Br)cc1C(=O)OCc1ccccc1" , what is its reported TGI?
Result: 34 µM

Request: For "C[C@@H](N)COc1ccc(-c2cnc3ccc(N[C@H](C)c4cccc(F)c4)nn23)cc1" , what is its reported TGI?
Result: 2.96 µM

Request: For N#CC1C[C@@H]2CC3(CCC2CN1C(=O)c1ccccc1)OCCO3 (stereo partly specified) , what is its reported TGI?
Result: > 100 µM
